- TGT: MBP-Core-C DDX3X (human, UniProt O00571 132-662)
- Sequence (O00571 132-662): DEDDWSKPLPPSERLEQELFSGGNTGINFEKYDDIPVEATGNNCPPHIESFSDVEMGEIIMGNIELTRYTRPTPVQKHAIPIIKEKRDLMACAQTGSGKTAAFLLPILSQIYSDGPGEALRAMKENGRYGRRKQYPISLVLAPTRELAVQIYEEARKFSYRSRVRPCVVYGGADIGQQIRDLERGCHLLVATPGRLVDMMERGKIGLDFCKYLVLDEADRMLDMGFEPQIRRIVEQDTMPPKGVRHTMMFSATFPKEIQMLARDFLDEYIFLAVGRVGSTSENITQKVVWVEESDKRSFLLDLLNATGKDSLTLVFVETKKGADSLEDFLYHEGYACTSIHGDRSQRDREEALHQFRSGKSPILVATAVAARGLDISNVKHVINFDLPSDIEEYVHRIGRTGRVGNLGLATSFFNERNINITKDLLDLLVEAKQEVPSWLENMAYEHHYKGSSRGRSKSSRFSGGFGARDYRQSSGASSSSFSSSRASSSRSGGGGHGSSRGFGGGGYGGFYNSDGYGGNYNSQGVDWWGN
- METHOD_DESCRIPTION: EMSA; 1 mM ATP-Mg; EMSA: 20 mM K-phosphate pH 7.0, 125 mM KCl, 1 mM DTT, 0.005% Tween-20, 10% glycerol (1 mM ATP-Mg for MBP-FL/Core-C), gel at room temperature; ITC: 20 mM K-phosphate pH 7.0, 50 mM KCl, 25 C; NMR: 200 mM KCl (also 120 mM), 10 C, 50 uM
- TEST_PARAMETERS: protein: recombinant; tags: N-terminal His6-MBP; label: 5'-FAM; G4 monomer

{"BINDER": "UGUGGGAGGGGCGGGUCUGGGUGC (structured_RNA) [FAM-NRAS GQ RNA]", "Kd, nM": 201}

Cited source: paper PMC12394722
